System: SNB-19 CNS
Experiment: NCI-60 one-dose screen, 48 h (100 = growth as untreated, 0 = no growth, -100 = all killed)
Conditions: 10 µM unless noted
The panel holds about 83,000 compounds, 20% with a hit somewhere; the sample as a whole holds those more often.
Collected growth values appear next to each entry.
Write it as a number; the unit % goes unstated.

Would you please look over these solved cases?
The reported value for COc1ccc(NC(=O)Nc2ccc(OCCCCCC(=O)NO)cc2)cc1 in terms of growth is 102

The reported value for CCN(CC)c1ccc(CNc2cc(C)nc3ccccc23)cc1 in terms of growth is 73.8

The reported value for CC1(C)C(N)=Nc2cc(OCCCN3Cc4ccccc4C3)c(OCC3CC3)cc21 in terms of growth is 85.2

The reported value for CNC(=O)c1ccccc1Nc1nc(Nc2cc(OC)c(OC)c(OC)c2)ncc1Br in terms of growth is 6.35

The reported value for CCN1C(=O)N(CC)C2C1NN=c1s/c(=C\c3ccc[nH]3)c(=O)n12 (centres undefined) in terms of growth is 24.9

The reported value for C=C(CNCCO)[C@@H]1CC[C@]2(CO)CC[C@]3(C)[C@H](CC[C@@H]4[C@@]5(C)CCC(N)C(C)(C)[C@@H]5CC[C@]43C)[C@@H]12 (some centres undefined) in terms of growth is 53.9

---
The reported value for CCS/C(Nc1ccccc1)=C(\C#N)C(=O)Nc1ccc(OC)cc1 in terms of growth is 23.1

The reported value for CSc1nn2c(-c3ccc4ccccc4c3)ccnc2c1C#N in terms of growth is 18.3
